Tested on: epimastigotes of T. cruzi (Tulahuen 2 strain, DTU Tc VI)
Assay notes: Screening / IC50 against T. cruzi epimastigotes (growth, absorbance 610 nm, 5 days)
Format: cell-based, Trypanosoma cruzi
Condition context: Trypanosoma cruzi, TULAHUEN, 120 h, read-out: IC50,epi
Assay endpoint: pIC50
Conceptually, pIC50 converts a concentration in mol/L into minus its log10.

Exercise: Output measured pIC50 for this item: NCC1(CC(=O)O)CCCCC1
Key: 5.22

---

System: epimastigote T. cruzi
Assay notes: Anti-epimastigote activity in modified milieu (excess Ca2+, glutamate or N-acetyl-L-cysteine, 1 mM)
Format: cell-based
Condition context: Trypanosoma cruzi, read-out: IC50,epi with excess of Ca2+
Method: Three controls of untreated parasites and containing excess of calcium (II), glutamate or N-acetyl-L-cysteine (1 mM) were included. All treated and untreated wells contain no more than 0.4% of DMSO. Controls were used to calculate the relative proliferation in the treatment wells. Assays were performed in triplicate for all cases.
Assay endpoint: IC50

Exercise: Output measured IC50 for this item: NCC1(CC(=O)O)CCCCC1 [Gaba, Gabapentin]
Key: > 25 µM

---

System: epimastigotes of T. cruzi (Tulahuen 2 strain, DTU Tc VI)
Assay notes: Screening / IC50 against T. cruzi epimastigotes (growth, absorbance 610 nm, 5 days)
Assay type: cell-based, Trypanosoma cruzi
Condition context: Trypanosoma cruzi, 120 h; epimastigotes Tulahuen 2, 5 days; read-out: IC50,epi
One threshold, 10 µM, splits the recorded IC50 values: lower ones are 1.0, equal or higher ones are 0.0.

Exercise: Item NC(=O)NN=C1C=Cc2ccccc2C1=O [Naft, Naftazone] : IC50 beneath 10 µM, strictly?
Key: 1.0

Exercise: Item CCOC(=O)N1CCC(=C2c3ccc(Cl)cc3CCc3cccnc32)CC1 [Lorat, Loratadine] : IC50 beneath 10 µM, strictly?
Key: 1.0

Exercise: Item O=C(Cn1ccnc1[N+](=O)[O-])NCc1ccccc1 [Bnz, Benznidazole] : IC50 beneath 10 µM, strictly?
Key: 1.0

Exercise: Item CCC(C)(C)C(=O)O[C@H]1C[C@@H](C)C=C2C=C[C@H](C)[C@H](CC[C@@H]3C[C@@H](O)CC(=O)O3)[C@H]21 [Simv, Simvastatin] : IC50 beneath 10 µM, strictly?
Key: 1.0

---

Listed here are molecules together with their documented pIC50.
Tested on: epimastigotes of T. cruzi (Tulahuen 2 strain, DTU Tc VI)
Assay notes: Screening / IC50 against T. cruzi epimastigotes (growth, absorbance 610 nm, 5 days)
Type: cell-based, Trypanosoma cruzi
Condition context: Trypanosoma cruzi, 120 h; epimastigotes Tulahuen 2, 5 days; read-out: IC50,epi
Conceptually, pIC50 converts a concentration in mol/L into minus its log10.

Solved cases (5 shown):
{"Molecule": "C[C@H]1c2cccc(O)c2C(=O)C2=C(O)[C@]3(O)C(=O)C(C(N)=O)=C(O)[C@@H](N(C)C)[C@@H]3[C@@H](O)[C@@H]21", "pIC50": 4.72}
{"Molecule": "CC(=O)N1CCN(c2ccc(OCC3COC(Cn4ccnc4)(c4ccc(Cl)cc4Cl)O3)cc2)CC1 (stereo not drawn)", "pIC50": 5.29}
{"Molecule": "CN(C/C=C/C#CC(C)(C)C)Cc1cccc2ccccc12", "pIC50": 4.67}
{"Molecule": "O=C1CN(/N=C/c2ccc([N+](=O)[O-])o2)C(=O)N1", "pIC50": 4.88}
{"Molecule": "CS(=O)(=O)CCNCc1ccc(-c2ccc3ncnc(Nc4ccc(OCc5cccc(F)c5)c(Cl)c4)c3c2)o1", "pIC50": 4.78}

From here, focus on the item given below.
Exercise: Output measured pIC50 for this item: CCOC(=O)C1=C(COCCN)NC(C)=C(C(=O)OC)C1c1ccccc1Cl (stereo not drawn)
Key: 4.86
